Each record here notes measured IC50.
- Tested System: Aromatase (Homo sapiens, UniProt P11511)
- Sequence (P11511 whole entry): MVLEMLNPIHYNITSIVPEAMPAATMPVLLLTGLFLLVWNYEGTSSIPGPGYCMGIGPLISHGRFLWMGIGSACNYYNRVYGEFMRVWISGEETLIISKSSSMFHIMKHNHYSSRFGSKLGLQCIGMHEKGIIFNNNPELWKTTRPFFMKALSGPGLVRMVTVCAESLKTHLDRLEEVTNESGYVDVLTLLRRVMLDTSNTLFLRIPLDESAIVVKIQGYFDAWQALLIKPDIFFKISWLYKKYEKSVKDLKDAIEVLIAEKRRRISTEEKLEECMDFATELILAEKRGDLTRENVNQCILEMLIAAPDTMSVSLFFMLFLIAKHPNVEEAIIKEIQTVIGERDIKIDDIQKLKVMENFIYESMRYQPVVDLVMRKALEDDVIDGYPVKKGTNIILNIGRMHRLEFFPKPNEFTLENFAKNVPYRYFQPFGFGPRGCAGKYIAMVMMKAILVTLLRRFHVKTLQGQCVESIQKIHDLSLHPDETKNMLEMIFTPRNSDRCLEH

Molecule: CC1(c2ccc(N)cc2)CC(=O)NC1=O (stereo not given)
IC50: 10 µM

Molecule: CN1C(=O)CC(c2ccc(N)cc2)C1=O (stereo not given)
IC50: 10 µM

Molecule: CN1C(=O)CC(C)(c2ccc(N)cc2)C1=O (stereo not given)
IC50: 10 µM

Molecule: Nc1ccc(C2CC(=O)NC2=O)cc1 (stereo not given)
IC50: 10.2 µM

Molecule: CCC1(c2ccc(N)cc2)CC(=O)NC1=O (stereo not given)
IC50: 8.4 µM

----------
- Tested System: Cholesterol side-chain cleavage enzyme, mitochondrial (cytochrome P450scc) (Bos taurus)
- Sequence (P00189 whole entry): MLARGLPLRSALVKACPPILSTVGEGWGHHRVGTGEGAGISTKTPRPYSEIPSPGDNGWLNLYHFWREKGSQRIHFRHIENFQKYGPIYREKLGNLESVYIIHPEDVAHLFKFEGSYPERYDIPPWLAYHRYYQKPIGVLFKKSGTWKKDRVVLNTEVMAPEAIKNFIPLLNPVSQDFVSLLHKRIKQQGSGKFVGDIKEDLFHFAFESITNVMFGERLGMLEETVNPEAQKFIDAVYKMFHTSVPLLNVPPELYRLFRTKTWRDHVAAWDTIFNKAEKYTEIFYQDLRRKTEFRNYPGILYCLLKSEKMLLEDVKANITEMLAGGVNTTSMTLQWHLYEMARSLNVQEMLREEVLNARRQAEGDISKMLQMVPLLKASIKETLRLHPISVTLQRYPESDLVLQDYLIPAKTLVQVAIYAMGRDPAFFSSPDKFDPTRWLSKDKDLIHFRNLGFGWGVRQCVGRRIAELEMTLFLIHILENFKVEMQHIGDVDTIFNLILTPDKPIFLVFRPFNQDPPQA
- Protocol Description: Inhibition of Bovine adrenal cholesterol side chain cleavage cytochrome P450 at 50 ug/mL
- Details: cattle
Measurement Label: inhibition at 50 ug/mL (%)

Compound: CC1(c2ccc(N)cc2)CC(=O)NC1=O (centres undefined)
Value Units: %
Measured Value: 0

Compound: CCC1(c2ccc(N)cc2)CC(=O)NC1=O (centres undefined)
Value Units: %
Measured Value: 38

Compound: CCC1(c2ccc(N)cc2)CCC(=O)NC1=O (centres undefined) [AMINOGLUTETHIMIDE]
Value Units: %
Measured Value: 83

Compound: CN1C(=O)CC(c2ccc(N)cc2)C1=O (centres undefined)
Value Units: %
Measured Value: 30

Compound: CN1C(=O)CC(C)(c2ccc(N)cc2)C1=O (centres undefined)
Value Units: %
Measured Value: 30

Compound: NC(=O)CCc1ccc(N)cc1
Value Units: %
Measured Value: 19

Compound: Nc1ccc(C2CC(=O)NC2=O)cc1 (centres undefined)
Value Units: %
Measured Value: 30

Compound: CCC1(c2ccc(N)cc2)CC(=O)N(C)C1=O (centres undefined)
Value Units: %
Measured Value: 0

Compound: NC(=O)CCc1ccc([N+](=O)[O-])cc1
Value Units: %
Measured Value: 28

----------
- Tested System: UniProtKB P11511
pKi: −log10 of the molar value.

Compound: CCC1(c2ccc(N)cc2)CC(=O)NC1=O (stereo unspecified)
pKi: 6.00
